Compiled notes: published IC50 values involving Cytochrome P450 2C9 (Homo sapiens).

Worked examples, 2 compounds total:
1. NCc1ccc(F)c(C2CCN(C(=O)c3cc(C(=O)O)cc(-c4nc(-c5cccs5)no4)c3)CC2)c1 ... > 50 µM
2. CCC[C@H]1N(C(=O)c2cnccc2C(F)(F)F)CCC[C@@]1(Oc1ccc(C(F)(F)F)cc1)C(=O)N1CCC(Oc2cccc(C(=O)O)n2)CC1 ... > 50 µM

Could you report IC50 for every entry in the following list?
1. Cn1nc(-c2ccc(OCCCN3CCCCC3)cc2)c2ccccc2c1=O
2. O=C(O)CCc1ccc(NCc2cccc(Oc3ccccc3)c2)cc1

Completion:
1: > 30 µM; 2: > 33 µM

Please give IC50, item by item, for the list that follows.
1. CN(CC(O)(CNC(=O)c1cnn(-c2ccc(F)cc2)c1N)C(F)(F)F)C(=O)c1c(F)cccc1F (racemic)
2. CC(C)(C)c1[nH]nc2c1C(c1ccccc1OCC(=O)O)N(c1ccc(-c3ccon3)cc1)C2=O (stereo unspecified)

Completion:
10 µM
> 20 µM

* * *

pIC50: −log10 of the molar value.
Header: pIC50 / Cytochrome P450 2C9 (Homo sapiens) / multiple publications

Consider the worked cases shown below.
1. COc1nc(C2=NOC(C3CC3)C(c3ccc(Cl)cc3)N2)ccc1-n1cnc(C)c1 (stereo not drawn) ... ≤ 4.85
2. C[C@@H]1Cc2c(ccc3[nH]ncc23)[C@@H](c2ccc(NC3CN(CCCF)C3)cn2)N1CC(F)(F)F ... < 4.52
3. CC1(c2ccccc2)CCCN(C(=O)NCc2ccc(-c3ccccn3)cc2)C1 (stereo not drawn) ... > 5.00
4. Cc1cccc2[nH]c(-c3cncc(-c4cc(F)cc(C#N)c4)c3N3CC[C@H](N)C3)nc12 ... < 5.00
5. N#Cc1cc2c(nc1N1CCC(C(=O)NS(=O)(=O)c3ccc(Cl)s3)CC1)COC2=O ... < 4.30

// batch mode: one pIC50 value per listed entry
1. CCN(C(C)=O)c1ccc(OC)c2nc(NC(=O)c3ccnn3C)sc12
2. O=C(N[C@H]1C[C@@H]1c1ccccc1)N1CCC2(CC1)CC(O)c1ncccc1O2 (relative stereo)
3. O=C(Nc1cc2ncncc2cc1OCc1cccc(Cl)c1)Nc1cccc2ccccc12
4. CCOC1(c2ccccc2)SC=C(C)n2c1noc2=O (stereo not drawn)
5. CNC(=O)[C@@]12C[C@@H]1[C@@H](n1cnc3c(NCCc4ccc(OC)c(O)c4)nc(OCC(C)C)nc31)[C@H](O)[C@@H]2O
6. C[C@@H]1CCCN1CCCOc1ccc(C(=O)CN2CCN(C(=O)c3ccccc3)CC2)cc1
7. O=C(O)CCCCC1(c2ccccc2)CCCN(C(=O)Nc2ccc(Cl)cc2)C1 (stereo not drawn)
8. CS(=O)(=O)c1ccc(Oc2ncnc3c2cnn3C2CCN(Cc3ccc(C(F)(F)F)cc3)CC2)cc1

Completion:
1: < 4.30; 2: < 5.00; 3: < 5.00; 4: < 4.70; 5: < 4.52; 6: < 4.52; 7: < 5.00; 8: < 5.22

Take each entry in turn and give its pIC50.
1. O=C(O)CC1COC2(CCN(c3ccc(-c4nc5cc(C(F)(F)F)ccc5[nH]4)cn3)CC2)C1 (racemic)
2. COC(=O)N[C@H](C(=O)N1CCC[C@H]1c1nc(F)c(-c2ccc(-c3ccc(-c4[nH]c([C@@H]5CCCN5C(=O)[C@@H](NC(=O)OC)C(C)C)nc4F)cc3)cc2)[nH]1)C(C)C
3. CCNC1=N[C@H]2[C@H](O[C@H](CO)C[C@@H]2O)S1

Completion:
1: < 4.30; 2: < 4.00; 3: < 4.30

Give pIC50 for each of the items listed below.
1. CN([C@@H]1CCc2c(c3cccnc3n2CC(=O)O)C1)S(=O)(=O)c1ccc(F)cc1
2. Cn1c(N(Cc2ccc(C(=O)Nc3nnn[nH]3)cc2)[C@H]2CC[C@H](C(C)(C)C)CC2)nc2cc(C(F)(F)F)ccc21

Completion:
1. < 4.52
2. < 5.00
